tested on: dengue virus type 3; experiment: Displacement of [3H]-SAM from biotinylated Dengue virus 3 methyltransferase expressed in Escherichia coli at 20 uM preincubated for 20 mins followed by [3H]-SAM addition measured after 15 mins by scintillation counting analysis
Activity calls are given as the source filed them. No cut-off for these calls is given here.
measure_name: inhibition

Solved cases (6 shown):
>>> result("Cc1cn([C@H]2C[C@H](NC(=O)C(c3ccccc3)(c3ccccc3)c3ccccc3)[C@@H](CO[Si](C)(C)C(C)(C)C)O2)c(=O)[nH]c1=O")
"Active"
>>> result("Cc1cn([C@H]2C[C@H](NC(=O)CCCCc3ccc(F)cc3)[C@@H](CO[Si](C)(C)C(C)(C)C)O2)c(=O)[nH]c1=O")
"Active"
>>> result("COc1ccc2cc(-c3cnnn3[C@H]3C[C@H](n4cc(C)c(=O)[nH]c4=O)O[C@@H]3CO[Si](C)(C)C(C)(C)C)ccc2c1")
"Active"
>>> result("Cc1cn([C@H]2C[C@H](N3C(=O)CSC3c3ccc4[nH]ccc4c3)[C@@H](CO[Si](C)(C)C(C)(C)C)O2)c(=O)[nH]c1=O (mixture of isomers)")
"Active"
>>> result("Cc1cn([C@H]2C[C@H](n3nncc3C3CCCCC3)[C@@H](CO[Si](C)(C)C(C)(C)C)O2)c(=O)[nH]c1=O")
"Active"
>>> result("Nc1ncnc2c1ncn2[C@@H]1O[C@H](C[C@@H](N)CC[C@H](N)C(=O)O)[C@@H](O)[C@H]1O")
"Active"

Turning now to a further compound:
Lab note: C[S+](CC[C@H](N)C(=O)[O-])C[C@H]1O[C@@H](n2cnc3c(N)ncnc32)[C@H](O)[C@@H]1O (some centres undefined) gave inhibition of Active
